Biological target: p38MAPKγ (MAPK12) (Homo sapiens)
Construct: purchased Life Technologies
Assay: p38 MAPKγ enzyme inhibition (Z-LYTE FRET)
Format: biochemical
Details: Table 2B, unit inferred; read-out: p38 MAPKγ (Enzyme Profile)
Protocol: The enzyme inhibitory activities of compounds disclosed herein were determined by FRET using synthetic peptides labelled with both donor and acceptor fluorophores (Z-LYTE, Life Technologies, Paisley, UK). The inhibitory activities of compounds of the invention against p38MAPKγ (MAPK12: Life Technologies), were evaluated by determining the level of activation/phosphorylation of the target peptide. […]
OUTCOME_MEASURE: pIC50
The read-out pIC50 is expressed as -log10 of concentration in moles per litre.

Cc1ccc(-n2nc(C(C)(C)C)cc2NC(=O)Nc2ccc(OCc3ccnc(Nc4cnc(C(=O)N5CCC(N(C)C)CC5)cn4)c3)c3ccccc23)cc1    8.40
COc1ccc(-n2nc(C(C)(C)C)cc2NC(=O)Nc2ccc(OCc3ccnc(Nc4cnc(C)c(C)n4)c3)c3ccccc23)cn1    5.62
COc1cncc(Nc2cc(COc3ccc(NC(=O)Nc4cc(C(C)(C)C)nn4-c4ccc(CO)cc4)c4ccccc34)ccn2)n1    7.64
CCc1cnc(Nc2cc(COc3ccc(NC(=O)Nc4cc(C(C)(C)C)nn4-c4ccc(C)c(C)c4)c4ccccc34)ccn2)cn1    6.36
CNC(=O)c1cnc(Nc2cc(COc3ccc(NC(=O)Nc4cc(C(C)(C)C)nn4-c4cccc(C)c4)c4ccccc34)ccn2)cn1    6.48
COC1CCN(C(=O)c2cnc(Nc3cc(COc4ccc(NC(=O)Nc5cc(C(C)(C)C)nn5-c5cccc(C)c5)c5ccccc45)ccn3)cn2)CC1    6.29
CCc1cncc(Nc2cc(COc3ccc(NC(=O)Nc4cc(C(C)(C)C)nn4-c4cc(C)cc(OC)c4)c4ccccc34)ccn2)n1    5.90

Please examine the following record next.
Query: Suppose we examine the compound Cc1ccc(-n2nc(C(C)(C)C)cc2NC(=O)Nc2ccc(OCc3ccnc(Nc4cncc(C(C)C)n4)c3)c3ccccc23)cc1 ; what pIC50 value has been reported?
Response: 6.20

###

// reported pIC50 per item
molecular target: p38MAPKγ (MAPK12) (Homo sapiens, UniProt P53778); construct: purchased Life Technologies; experiment: p38 MAPKγ enzyme inhibition (Z-LYTE FRET); format: biochemical; settings: Table 2B, unit inferred; read-out: p38 MAPKγ (Enzyme Profile)
Sequence (P53778 whole entry): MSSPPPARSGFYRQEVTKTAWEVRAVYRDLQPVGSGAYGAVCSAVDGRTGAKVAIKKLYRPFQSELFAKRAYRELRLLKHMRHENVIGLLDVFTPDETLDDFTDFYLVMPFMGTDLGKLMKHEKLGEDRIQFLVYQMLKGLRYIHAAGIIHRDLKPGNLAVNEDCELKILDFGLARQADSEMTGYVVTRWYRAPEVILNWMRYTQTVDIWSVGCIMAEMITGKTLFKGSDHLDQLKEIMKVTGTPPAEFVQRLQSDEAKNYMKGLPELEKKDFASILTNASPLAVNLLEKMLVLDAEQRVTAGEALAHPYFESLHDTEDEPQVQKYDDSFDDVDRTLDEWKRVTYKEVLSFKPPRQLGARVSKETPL
pIC50: −log10 of the molar value.

Known results for compounds:
COc1ccc(-n2nc(C(C)(C)C)cc2NC(=O)Nc2ccc(OCc3ccnc(Nc4cnc(C(=O)N5CCCC5)cn4)c3)c3ccccc23)cn1 [Example 219]    < 4.85
CCCc1cncc(Nc2cc(COc3ccc(NC(=O)Nc4cc(C(C)(C)C)nn4-c4cccc(F)c4)c4ccccc34)ccn2)n1 [Example 255]    < 4.81
COc1ccc(-n2nc(C(C)(C)C)cc2NC(=O)Nc2ccc(OCc3ccnc(Nc4cnc(C)c(C)n4)c3)c3ccccc23)cc1C [Example 135]    < 4.82
COCCN(C)C(=O)c1cnc(Nc2cc(COc3ccc(NC(=O)Nc4cc(C(C)(C)C)nn4-c4cccc(C)c4)c4ccccc34)ccn2)cn1 [Example 205]    6.58
CSc1ccc(-n2nc(C(C)(C)C)cc2NC(=O)Nc2ccc(OCc3ccnc(Nc4cnccn4)c3)c3ccccc23)cc1 [Example 149]    < 4.80

Query: Suppose we examine the compound Cc1ccc(-n2nc(C(C)(C)C)cc2NC(=O)Nc2ccc(OCc3ccnc(Nc4cnc(C(=O)N5CCC5)cn4)c3)c3ccccc23)cc1 [Example 128] ; what pIC50 value has been reported?
Response: < 4.83

Query: Suppose we examine the compound CC(C)c1cccc(-n2nc(C(C)(C)C)cc2NC(=O)Nc2ccc(OCc3ccnc(Nc4cnccn4)c3)c3ccccc23)c1 [Example 131] ; what pIC50 value has been reported?
Response: < 4.80

Source listed as patent US11142515B2.
